- assay_remarks: in vitro
- test_conditions: human, hek293t cells
# reported viability at 48 h, 25 µM; entries follow
measured_property: viability at 48 h, 25 µM (%)

1. Cc1noc(C)c1CN(C)C(=O)CCl [5-G06] :: 1.87
2. COc1ccccc1[C@H]1C[C@H](NC(=O)CCl)C1 [7-L18] :: 0.928
3. O=C(CCl)NCC(c1ccccc1Cl)N1CCCC1 (centres unmarked) [6-G17] :: 104
4. Cc1c(C=C(C#N)C(=O)Nc2nccs2)cc(C#N)n1C [8-B18] :: 94.1
5. CC(C)NC(=O)C(C#N)=Cc1ccc(-c2ccc([N+](=O)[O-])cc2)o1 [8-I19] :: 93
6. C=CC(=O)NCc1ccc(C(=O)N2CCN(C(C)=O)CC2)cc1 [3-G17] :: 32.9
7. Cc1ccccc1-n1c(C)cc(C(=O)CCl)c1C [10-H20] :: 0.349
8. C=CC(=O)NC[C@@H]1C[C@H]1C1CCCCC1 [1-O19] :: 106
9. Cc1cccc(NC(=O)C(C#N)=Cc2ccc(F)cc2)c1 [9-E12] :: 90.9
10. C=CC(=O)Nc1cc(S(=O)(=O)N(C)C)cc(C)c1C [1-K11] :: 71.3
11. C=CC(=O)N1CCC(C(=O)NC2CCOC3(CCSCC3)C2)CC1 (centres unmarked) [2-B12] :: 97.1

These measurements were taken from paper PMC11995724.
